This collection of values is drawn from ChEMBL document CHEMBL3407332.

# System: Leishmania panamensis
# experiment: Antileishmanial activity against amastigote stage of Leishmania panamensis MHOM/CO/87/UA140-EpiR-GFP infected in human U937 cells assessed as parasite growth inhibition at 20 ug/mL after 72 hrs by flow cytometric analysis relative to control
# Type: functional
# condition_parameters: MHOM/CO/87/UA140, U-937, 72 h, read-out: GI
measured_quantity: inhibition of growth at 20 µg/mL
# include the unit after the value

Worked examples follow.
compound="COc1cc(C2CC(c3cc(OC)c(OC)c(OC)c3)=NN2)ccc1Oc1nc2c(c(=O)n(C)c(=O)n2C)n1C (stereo unspecified)" result=73%
compound="COc1cc(C2CC(c3ccc(C)cc3)=NN2)ccc1Oc1nc2c(c(=O)n(C)c(=O)n2C)n1C (stereo unspecified)" result=0%

Find the recorded inhibition of growth at 20 µg/mL belonging to COc1cc(C2CC(c3ccc(C)cc3)=NN2C(C)=O)ccc1Oc1nc2c(c(=O)n(C)c(=O)n2C)n1C (stereo unspecified) and report it.
63.7%

Also COc1cc(C2CC(c3ccc(C)cc3)=NN2C=O)ccc1Oc1nc2c(c(=O)n(C)c(=O)n2C)n1C (stereo unspecified) ?
0%

###

# Tested on: Leishmania panamensis
# experiment: Antileishmanial activity against amastigote stage of Leishmania panamensis MHOM/CO/87/UA140-EpiR-GFP infected in human U937 cells assessed as parasite growth inhibition at 20 ug/mL after 72 hrs by flow cytometric analysis relative to control
# Assay type: functional
# condition_parameters: MHOM/CO/87/UA140, U-937, 72 h, read-out: GI
Readings of inhibition of growth at 20 µg/mL for the listed compounds
Write the number in % without appending the unit.

Worked examples follow.
compound="COc1cc(C2CC(c3ccc(Cl)cc3)=NN2)ccc1Oc1nc2c(c(=O)n(C)c(=O)n2C)n1C (configuration not stated)" tested_target="Leishmania panamensis" recorded_number=7.7
compound="COc1cc(C2CC(c3ccc(Br)cc3)=NN2C(C)=O)ccc1Oc1nc2c(c(=O)n(C)c(=O)n2C)n1C (configuration not stated)" tested_target="Leishmania panamensis" recorded_number=82.8
compound=COc1ccc(C(=O)/C=C/c2ccc(Oc3nc4c(c(=O)n(C)c(=O)n4C)n3C)c(OC)c2)cc1 tested_target="Leishmania panamensis" recorded_number=82.6
compound="COc1cc(C2CC(c3ccccc3)=NN2C=O)ccc1Oc1nc2c(c(=O)n(C)c(=O)n2C)n1C (configuration not stated)" tested_target="Leishmania panamensis" recorded_number=53.1

Now look at this entry.
Entry COc1cc(C2CC(c3ccc(Cl)cc3)=NN2C=O)ccc1Oc1nc2c(c(=O)n(C)c(=O)n2C)n1C (configuration not stated) , system Leishmania panamensis: what inhibition of growth at 20 µg/mL was measured?
0

###

# System: Leishmania panamensis
# experiment: Antileishmanial activity against amastigote stage of Leishmania panamensis MHOM/CO/87/UA140-EpiR-GFP infected in human U937 cells assessed as parasite growth inhibition at 20 ug/mL after 72 hrs by flow cytometric analysis relative to control
# Format: functional
# condition_parameters: MHOM/CO/87/UA140, U-937, 72 h, read-out: GI
measured_quantity: inhibition of growth at 20 µg/mL (%)
Write the number in % without appending the unit.

Worked examples follow.
molecule="COc1cc(C2CC(c3ccc(Br)cc3)=NN2)ccc1Oc1nc2c(c(=O)n(C)c(=O)n2C)n1C (configuration not stated)" tested_target="Leishmania panamensis" recorded_number=60
molecule="COc1ccc(C2=NNC(c3ccc(Oc4nc5c(c(=O)n(C)c(=O)n5C)n4C)c(OC)c3)C2)cc1 (configuration not stated)" tested_target="Leishmania panamensis" recorded_number=0
molecule="COc1cc(C2CC(c3ccc(F)cc3)=Nc3c(C)nn(-c4ccccc4)c3N2)ccc1Oc1nc2c(c(=O)n(C)c(=O)n2C)n1C (configuration not stated)" tested_target="Leishmania panamensis" recorded_number=0
molecule="COc1cc(C2CC(c3ccc(Br)cc3)=NN2C=O)ccc1Oc1nc2c(c(=O)n(C)c(=O)n2C)n1C (configuration not stated)" tested_target="Leishmania panamensis" recorded_number=70.4
molecule="COc1cc(C2CC(c3ccc(C)cc3)=Nc3c(C)nn(-c4ccccc4)c3N2)ccc1Oc1nc2c(c(=O)n(C)c(=O)n2C)n1C (configuration not stated)" tested_target="Leishmania panamensis" recorded_number=0
molecule="COc1ccc(C2=NN(C(C)=O)C(c3ccc(Oc4nc5c(c(=O)n(C)c(=O)n5C)n4C)c(OC)c3)C2)cc1 (configuration not stated)" tested_target="Leishmania panamensis" recorded_number=76.2

Find the recorded inhibition of growth at 20 µg/mL belonging to COc1cc(C2CC(c3ccccc3)=Nc3c(C)nn(-c4ccccc4)c3N2)ccc1Oc1nc2c(c(=O)n(C)c(=O)n2C)n1C (configuration not stated) and report it.
0
